# STUDY_SYSTEM: alanyl aminopeptidases (APN) (Homo sapiens)
# ASSAY_PROTOCOL: Inhibition of alanyl aminopeptidase enzymatic activity, fluorogenic substrate (Ala)2-rhodamine 110
# Type: biochemical
# CONDITION_INFO: Table 6; read-out: IC50APN
One threshold, 20 µM, splits the recorded IC50 values: lower ones are 1, equal or higher ones are 0.

INSERT INTO assay_data (molecule, discrete_label) VALUES
  ('Cc1ccc(S(=O)(=O)N(Cc2ccc(Cl)cc2)c2ccccc2C(=O)N/N=C/c2ccco2)cc1', 1);

Shifting focus to the molecule that follows.
[Q] is_below(IC50, 20 µM) for Cc1ccccc1S(=O)(=O)Nc1cccc(C(=O)N/N=C/c2ccco2)c1 ?
[A] 1

====

# STUDY_SYSTEM: alanyl aminopeptidases (APN) (Homo sapiens, UniProt P15144)
# Sequence (P15144 whole entry, species assumed): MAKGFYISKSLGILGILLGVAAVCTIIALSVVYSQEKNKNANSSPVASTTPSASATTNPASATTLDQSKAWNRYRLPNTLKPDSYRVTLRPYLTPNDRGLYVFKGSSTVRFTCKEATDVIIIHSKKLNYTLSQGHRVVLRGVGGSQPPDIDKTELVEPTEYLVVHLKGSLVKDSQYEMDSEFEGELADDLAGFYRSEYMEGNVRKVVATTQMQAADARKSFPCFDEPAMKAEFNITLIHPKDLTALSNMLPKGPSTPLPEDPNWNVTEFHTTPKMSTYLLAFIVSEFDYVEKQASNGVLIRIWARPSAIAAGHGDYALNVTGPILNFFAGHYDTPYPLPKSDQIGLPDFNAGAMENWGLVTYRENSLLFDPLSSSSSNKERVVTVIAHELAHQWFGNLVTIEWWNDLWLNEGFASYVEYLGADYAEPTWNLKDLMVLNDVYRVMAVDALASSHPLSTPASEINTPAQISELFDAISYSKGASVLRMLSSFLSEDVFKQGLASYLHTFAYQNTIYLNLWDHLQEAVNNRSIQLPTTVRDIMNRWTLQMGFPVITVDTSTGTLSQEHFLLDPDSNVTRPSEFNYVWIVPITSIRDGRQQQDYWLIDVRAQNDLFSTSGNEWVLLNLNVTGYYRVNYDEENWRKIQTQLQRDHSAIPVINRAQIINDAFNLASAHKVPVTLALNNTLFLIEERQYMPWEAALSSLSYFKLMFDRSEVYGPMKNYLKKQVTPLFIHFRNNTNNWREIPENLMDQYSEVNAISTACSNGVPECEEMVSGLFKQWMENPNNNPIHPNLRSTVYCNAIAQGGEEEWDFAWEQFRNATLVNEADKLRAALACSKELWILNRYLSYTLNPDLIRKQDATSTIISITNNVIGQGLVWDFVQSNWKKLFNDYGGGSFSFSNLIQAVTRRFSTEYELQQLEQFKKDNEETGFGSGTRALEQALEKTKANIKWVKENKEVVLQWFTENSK
# ASSAY_PROTOCOL: Inhibition of alanyl aminopeptidase enzymatic activity, fluorogenic substrate (Ala)2-rhodamine 110
# Format: biochemical
# CONDITION_INFO: Table 3, unstarred values; read-out: IC50APN
# Procedure: The inhibition characteristics measured are referred to as IC-50 values or ID50 values (the latter marked with “*”) for said enzyme. The enzymatic activity was determined by means of the fluorogenic substrate/product (Ala)2-rhodamine 110.
Can you tell me IC50 for the items I'm about to list?
One number for each entry, in µM.

Reference set, count: 3
INSERT INTO results (compound, units_text, endpoint_value) VALUES
  ('CC1SC(N/N=C/c2ccco2)=NC1=O (centres unmarked) [A3.169]', 'µM', 27.7),
  ('CCCOc1ccccc1-c1cc(C(=O)N/N=C/c2ccco2)[nH]n1 [A3.100]', 'µM', 19.5),
  ('CC(C)COc1ccc(C(=O)N/C(=C\c2ccco2)C(=O)N2CCOCC2)cc1 [A3.057]', 'µM', 13.1);

Kindly give each listed record's IC50.
1. O=C1C(Cc2ccccc2)NC(=S)N1c1ccccc1 (centres unmarked) [A3.151]
2. Cc1ccc(/C=N/NC(=O)c2ccccc2OCc2ccccc2)o1 [A3.090]
3. O=C(N/N=C/c1ccco1)c1ccc(O)cc1O [A3.229]
4. Cc1ccc(/C=N/NC(=O)c2ccc(O)cc2)o1 [A3.142]

[A]
1: 26.1; 2: 18.4; 3: 38.3; 4: 23.4

Kindly give each listed record's IC50.
1. COC(=O)c1ccc(-c2ccc(/C=C3\C(=O)N(CCCO)C(=O)C(C#N)=C3C)o2)cc1 [A3.018]
2. O=C(N/N=C\c1ccco1)c1ccc(S(=O)(=O)N2CCCCCC2)cc1 [A3.029]
3. C=CCN1C(=O)C(C#N)=C(C)/C(=C\c2ccc(-c3cc(C)c(C)cc3[N+](=O)[O-])o2)C1=O [A3.180]
4. COc1ccc(OC)c(-c2cc(C(=O)N/N=C/c3ccco3)[nH]n2)c1 [A3.237]
5. Cc1ccc(C(=O)N/C(=C/c2ccco2)C(=O)N(C)C)cc1 [A3.198]
6. O=C(N/N=C/c1ccco1)c1ccc(NC(=O)c2ccccc2Cl)cc1 [A3.199]
7. Cc1ccc(Cn2c(SCCC(=O)O)nc3c2c(=O)n(C)c(=O)n3C)cc1 [A3.170]
8. Cc1cccc(C(=O)Nc2ccc(C(=O)N/N=C/c3ccc(C)o3)cc2)c1 [A3.106]

[A]
1: 5; 2: 8; 3: 29.3; 4: 43.2; 5: 32.5; 6: 32.5; 7: 28; 8: 20.2

Kindly give each listed record's IC50.
1. O=C(C[N+](=O)[O-])C1=CC2OC=CC2N1 (centres unmarked) [A3.258]
2. CCOC(=O)c1ncn(Cc2ccccc2)c1N [A3.063]
3. CCOC(=O)c1cc(Br)ccc1-c1ccc(/C=C2\C(=O)N=C(O)C(C#N)=C2C)o1 [A3.260]
4. CCOC(=O)c1ncn(C)c1N [A3.262]
5. O=C(N/N=C/c1ccco1)c1cccc(NC(=O)c2ccccc2Cl)c1 [A3.110]
6. Cc1ccc(NC(=O)/C(=C\c2ccco2)NC(=O)c2ccccc2Cl)cc1 [A3.086]
7. O=C(N/N=C\c1ccco1)c1cnccn1 [A3.185]
8. COc1cc(/C=N/NC(=O)/C(=C/c2cccs2)NC(=O)c2ccccc2)cc([N+](=O)[O-])c1O [A3.152]

[A]
1: 49.5; 2: 14; 3: 49.9; 4: 50.1; 5: 20.6; 6: 17.9; 7: 30.1; 8: 25.1

====

# STUDY_SYSTEM: alanyl aminopeptidases (APN) (Homo sapiens, UniProt P15144)
# ASSAY_PROTOCOL: Inhibition of alanyl aminopeptidase enzymatic activity, fluorogenic substrate (Ala)2-rhodamine 110
# Assay type: biochemical
# CONDITION_INFO: Table 3, starred values = ID50; read-out: ID50 APN (values marked with *)
RECORDED_METRIC: log10 IC50 (log10 of the value in µM)
Units before log transform: µM; reported quantity: IC50; transform: log10.

Reference set, count: 4
INSERT INTO measurements (compound, study_system, endpoint_value) VALUES
  ('O=C(CNC(=O)c1ccccc1)N/N=C/c1ccco1', 'alanyl aminopeptidases (APN) (Homo sapiens, UniProt P15144)', 1.69),
  ('C/C(=N\NC(=O)c1cc(-c2ccco2)n[nH]1)c1ccco1', 'alanyl aminopeptidases (APN) (Homo sapiens, UniProt P15144)', 2.21),
  ('O=C(Cc1ccccc1)NCC(=O)N/N=C/c1ccco1', 'alanyl aminopeptidases (APN) (Homo sapiens, UniProt P15144)', 1.86),
  ('CCOC(=O)c1ncn(C(=O)OC)c1N', 'alanyl aminopeptidases (APN) (Homo sapiens, UniProt P15144)', -0.05);

Kindly give each listed record's log10 IC50.
1. O=C(N/N=C/c1ccco1)c1ccc([N+](=O)[O-])cc1
2. CCCC1NC(=S)N(c2ccccc2)C1=O (stereo not drawn)
3. COc1ccc(CSCC(=O)N/N=C/c2ccco2)cc1

[A]
[2.48, 2.19, 1.82]

====

# STUDY_SYSTEM: alanyl aminopeptidases (APN) (Homo sapiens)
# ASSAY_PROTOCOL: Inhibition of alanyl aminopeptidase enzymatic activity, fluorogenic substrate (Ala)2-rhodamine 110
# Type: biochemical
# CONDITION_INFO: Table 12; read-out: IC50APN
One threshold, 10 µM, splits the recorded IC50 values: lower ones are T, equal or higher ones are F.

INSERT INTO assay_data (compound, discrete_label) VALUES
  ('COC(=O)c1cccc(-c2ccc(/C=C3\C(=O)N(CCO)C(=O)C(C#N)=C3C)o2)c1', 'T');

[Q] is_below(IC50, 10 µM) for CC(C)C1N=C(Cc2cccnc2)N(CCCN2CCCC2=O)C1C(=O)NCc1ccccc1 (stereo not drawn) ?
[A] F

[Q] What about Cc1cc(Cl)ccc1OCCCC(=O)NO ?
[A] T

[Q] What about Cc1ccc(NC(=O)/C(=C\c2ccco2)NC(=O)c2ccccc2Cl)cc1 ?
[A] F

[Q] What about CCOC(=O)C(NC(=O)c1ccccc1)(N1CCC(Cc2ccccc2)CC1)C(F)(F)F (stereo not drawn) ?
[A] F

[Q] What about CCOC(=O)C(NC(=O)c1ccccc1)(Nc1ccc(OC)cc1OC)C(F)(F)F (stereo not drawn) ?
[A] F

[Q] What about Cc1ccc(C(=O)N/C(=C\c2ccco2)C(=O)N2CC3CC(C2)c2cccc(=O)n2C3)cc1 (stereo not drawn) ?
[A] F

[Q] What about O=C(NC(Sc1ccncn1)C(=O)c1ccccc1)c1ccccc1 (stereo not drawn) ?
[A] F

[Q] What about O=C(COc1ccc(Br)cc1)NO ?
[A] T

====

# STUDY_SYSTEM: alanyl aminopeptidases (APN) (Homo sapiens, UniProt P15144)
# ASSAY_PROTOCOL: Inhibition of alanyl aminopeptidase enzymatic activity, fluorogenic substrate (Ala)2-rhodamine 110
# Type: biochemical
# CONDITION_INFO: Table 3, unstarred values; read-out: IC50APN
Residues, ends and D or L forms follow the SMILES beside them. *: point of attachment. Fmoc = O=C(OCC1c2ccccc2-c2ccccc21)*
Can you tell me pIC50 for the items I'm about to list?
One number for each entry, as −log10 of the molar value.

Reference set, count: 3
INSERT INTO results (molecule, study_system, endpoint_value) VALUES
  ('Cn1c(=O)[nH]c2nnc(-c3cccs3)nc2c1=O', 'alanyl aminopeptidases (APN) (Homo sapiens, UniProt P15144)', 4.58),
  ('Cc1ccc(S(=O)(=O)N2CCC(C(=O)N/N=C/c3ccco3)CC2)cc1', 'alanyl aminopeptidases (APN) (Homo sapiens, UniProt P15144)', 4.16),
  ('CCOC(=O)C(NC(=O)c1ccc(OC)cc1)(N1CCCC1=O)C(F)(F)F (stereo not shown)', 'alanyl aminopeptidases (APN) (Homo sapiens, UniProt P15144)', 4.31);

Note: attention shifts to another entry.
[Q] // pIC50 lookup, key: CC(C)CC(NC(=O)C(CCC(N)=O)NC(=O)CNC(=O)C(NC(=O)OCC1c2ccccc2-c2ccccc21)C(C)C)C(=O)O (stereo not shown) [A3.132] (Fmoc-VGQL-OH; configuration not given here)
[A] 4.65
